Reference source for all entries: PubChem BioAssay AID1851

# tgt: Cytochrome P450 2C9 (Homo sapiens) (UniProt P11712)
# Sequence (P11712 whole entry, looked up): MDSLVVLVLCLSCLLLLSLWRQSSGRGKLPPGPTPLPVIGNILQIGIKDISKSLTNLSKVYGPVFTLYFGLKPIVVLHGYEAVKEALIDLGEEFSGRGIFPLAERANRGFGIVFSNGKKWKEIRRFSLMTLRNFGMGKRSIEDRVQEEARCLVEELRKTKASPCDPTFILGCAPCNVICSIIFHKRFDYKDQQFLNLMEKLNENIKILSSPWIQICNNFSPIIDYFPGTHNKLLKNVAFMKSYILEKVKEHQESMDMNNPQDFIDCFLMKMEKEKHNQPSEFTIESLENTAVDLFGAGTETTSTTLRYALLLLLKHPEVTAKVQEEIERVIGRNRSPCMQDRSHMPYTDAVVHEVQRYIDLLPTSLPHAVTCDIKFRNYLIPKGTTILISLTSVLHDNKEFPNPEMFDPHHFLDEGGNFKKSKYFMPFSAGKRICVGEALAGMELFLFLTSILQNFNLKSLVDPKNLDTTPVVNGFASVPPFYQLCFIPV
# experimentDescription: Cytochrome panel assay with activity outcomes; for activity, negative = inhibition: % is set by controls: 0 for no effect and ±100 for the full control effect
# cond: recombinant CYP, pro-luciferin dealkylation, luminescence, p450-cyp2c9; series mostly up to 57.1 µM
Among all 16,000 compounds or so, about 4,000 (25%) were called active. Inconclusive results (about 26%) are left out. Not all results are given here.
# activity, negative = inhibition listing for each entry below

Incoming: Quick check: activity, negative = inhibition of N#Cc1cccc(-c2cc(NCc3ccccc3)ncn2)c1 ?
Outgoing: 10.6% [at 2.29 µM] (inactive)

* * *

# tgt: Cytochrome P450 2C9 (Homo sapiens)
# experimentDescription: Cytochrome panel assay with activity outcomes
# cond: recombinant CYP, pro-luciferin dealkylation, luminescence, p450-cyp2c9; series mostly up to 57.1 µM
Out of some 16,000 compounds screened, about 4,000 (25%) were called active. About 26% were inconclusive and are not listed. The call rests on the fitted dose curve; in most records, active means well fitted curve in the direction sought with a large enough effect; inconclusive means small, poorly fitted or top-dose-only effect, or effect the other way; inactive means no such curve, though single readings can be large or run the other way. Only a sample is shown.
Hi there, use one of these labels in your reply, thanks! 1 (yes) = active, 0 (no) = inactive

Take a look at these entries with their results.
N#Cc1ccccc1NC(=O)Nc1cccs1 = 0 (no)
O=C(Nc1c2c(nn1-c1ccc(F)cc1)CS(=O)(=O)C2)C12CC3CC(CC(C3)C1)C2 = 0 (no)
O=C(Nc1ccccc1)c1ccccc1CC[N+](=O)[O-] = 0 (no)
O=C(CNS(=O)(=O)c1ccc(Br)s1)N1CCC(N2CCCCC2)CC1 = 0 (no)
CCN(CC)c1ncnc2c1sc1nc(C)cc(C)c12 = 1 (yes)

Incoming: Query: recorded result category for O=C(Nc1ccccc1)c1cc([N+](=O)[O-])ccc1Cl in this test
Outgoing: 1 (yes)

Incoming: Query: recorded result category for COc1ccc(C(=O)NC2(C(F)(F)F)C(=O)Nc3c2c(=O)[nH]c(=O)n3CCc2ccc(OC)c(OC)c2)cc1 (centres undefined) in this test
Outgoing: 0 (no)

Incoming: Query: recorded result category for CCn1c(O)c(/C=C2\C=Nc3ccccc32)sc1=Nc1ccc(C)cc1 in this test
Outgoing: 1 (yes)

Incoming: Query: recorded result category for CCNc1ncc2nc(-c3cccs3)c(=O)n(CCc3ccccc3)c2n1 in this test
Outgoing: 0 (no)

Incoming: Query: recorded result category for COc1ccc(C2c3c(ncn(CCN4CCOCC4)c3=N)Oc3ccc4ccccc4c32)cc1OC (centres undefined) in this test
Outgoing: 1 (yes)

* * *

# tgt: Cytochrome P450 2C9 (Homo sapiens)
# experimentDescription: Cytochrome panel assay with activity outcomes
# cond: recombinant CYP, pro-luciferin dealkylation, luminescence, p450-cyp2c9; series mostly up to 57.1 µM
Screen size: about 16,000 compounds; about 4,000 (25%) were called active. About 26% were inconclusive and are not listed. Calls follow the shape of the dose curve; as a rule, active = well fitted curve in the direction sought with a large enough effect; inconclusive = small, poorly fitted or top-dose-only effect, or effect the other way; inactive = no such curve, though single readings can be large or run the other way. Not all results are given here.
Hi there, use one of these labels in your reply, thanks! active, inactive

Cc1ccccc1C(=O)Oc1ccc(Br)cc1C(=S)N1CCCC1 = active
N#Cc1cccc(-c2nc3cnc(Oc4cccc(Cl)c4)nc3n(C3CC3)c2=O)c1 = active
Cn1cnnc1SCC(=O)OCN1C(=O)c2ccccc2C1=O = inactive
O=c1cnc2cnc(Oc3ccccc3)nc2n1C1CC1 = inactive
Cn1c(=O)c(-c2ccc(Cl)cc2)nc2cnc(Oc3cccc(Cl)c3)nc21 = inactive

Could you now consider this next compound?
Incoming: Query: recorded result category for O=C(CCCn1c(=S)[nH]c2ccc(Br)cc2c1=O)N1CCN(c2ccccn2)CC1 in this test
Outgoing: active
